Test: Solubility of inhibitors in different solvents
Type: physicochemical
Conditions: organic solvent or mixture, thermodynamic from solid; DMSO, 30°C; read-out: Solubility
measurementType: solubility at 24 h

Input line: GET /values?readout=solubility at 24 h&item= "O=C(Nc1ccc(OC(F)(F)F)cc1)N[C@H]1CC[C@H](Oc2ccc(C(=O)O)cc2)CC1"
Output line: 299 mM

====

Assay: Microsomal stability
Type: in vitro ADME, horse
Conditions: 1 μM inhibitor, microsomes 1 mg/mL, with NADPH, 37°C, 30 min; compound remaining, average ± SD (n = 3)
For each of the compounds below, state its Stability (% without microsomes) Horse liver microsomes NADPH +.
Answers are plain numbers, in %.

Example cases with answers are listed next.
Input line: GET /values?readout=Stability (% without microsomes) Horse liver microsomes NADPH +&item= "O=C(NCCCCOc1ccc(F)cc1)NC12CC3CC(CC(C3)C1)C2"
Output line: 1.6

Input line: GET /values?readout=Stability (% without microsomes) Horse liver microsomes NADPH +&item= "N#CNC(=O)CCCCCCCCCCCNC(=O)NC12CC3CC(CC(C3)C1)C2"
Output line: 28

Input line: GET /values?readout=Stability (% without microsomes) Horse liver microsomes NADPH +&item= "O=C(O)CCCCCCCCCCCNC(=O)NC12CC3CC(CC(C3)C1)C2"
Output line: 96

// below: Stability (% without microsomes) Horse liver microsomes NADPH + requested for another compound
Input line: GET /values?readout=Stability (% without microsomes) Horse liver microsomes NADPH +&item= "O=C(Nc1ccc(OC(F)(F)F)cc1)N[C@H]1CC[C@H](Oc2ccc(C(=O)O)cc2)CC1"
Output line: 89

====

Experiment: Solubility of inhibitors in different solvents
Format: physicochemical
Conditions: organic solvent or mixture, thermodynamic from solid; Glycerol, 40°C; read-out: Solubility
measurementType: solubility at 24 h (µM)
Numbers only, in µM.

Input line: GET /values?readout=solubility at 24 h&item= "O=C(Nc1ccc(OC(F)(F)F)cc1)N[C@H]1CC[C@H](Oc2ccc(C(=O)O)cc2)CC1"
Output line: 410

====

Target: Dog sEH (Canis lupus familiaris)
Sequence (A0A8I3NJL8 1-556): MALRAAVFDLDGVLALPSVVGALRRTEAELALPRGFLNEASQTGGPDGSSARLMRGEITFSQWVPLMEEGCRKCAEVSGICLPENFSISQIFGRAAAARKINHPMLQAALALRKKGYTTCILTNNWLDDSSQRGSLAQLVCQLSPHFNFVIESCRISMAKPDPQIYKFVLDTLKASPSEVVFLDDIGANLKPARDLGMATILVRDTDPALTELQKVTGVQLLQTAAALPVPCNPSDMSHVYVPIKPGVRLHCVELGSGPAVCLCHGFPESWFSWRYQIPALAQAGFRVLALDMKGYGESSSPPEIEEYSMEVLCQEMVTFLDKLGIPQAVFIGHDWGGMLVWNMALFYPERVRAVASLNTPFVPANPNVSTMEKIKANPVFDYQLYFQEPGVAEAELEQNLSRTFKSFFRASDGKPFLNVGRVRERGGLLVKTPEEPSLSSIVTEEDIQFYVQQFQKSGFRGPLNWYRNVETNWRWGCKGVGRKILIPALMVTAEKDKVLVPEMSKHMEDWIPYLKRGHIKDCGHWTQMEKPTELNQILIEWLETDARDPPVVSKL
Experiment: sEH inhibition potency (IC50), fluorescent assay with CMNPC, partially purified enzyme
Type: biochemical
Conditions: CMNPC ([S]final = 5 μM) as substrate; average ± standard deviation (n = 3)
For each of the molecules below, state its pIC50.
One number for each entry, as −log10 of the molar value.

Input line: GET /values?readout=pIC50&item= "N#CNC(=O)CCCCCCCCCCCNC(=O)NC12CC3CC(CC(C3)C1)C2"
Output line: 9.22

// below: pIC50 requested for another molecule
Input line: GET /values?readout=pIC50&item= "O=C(NCCCCOc1ccc(F)cc1)NC12CC3CC(CC(C3)C1)C2"
Output line: 9.05

====

Molecular target: sEH activity from liver cytosol of Cow (Bos taurus, UniProt Q17QK4)
Sequence (Q17QK4 entry or part of it): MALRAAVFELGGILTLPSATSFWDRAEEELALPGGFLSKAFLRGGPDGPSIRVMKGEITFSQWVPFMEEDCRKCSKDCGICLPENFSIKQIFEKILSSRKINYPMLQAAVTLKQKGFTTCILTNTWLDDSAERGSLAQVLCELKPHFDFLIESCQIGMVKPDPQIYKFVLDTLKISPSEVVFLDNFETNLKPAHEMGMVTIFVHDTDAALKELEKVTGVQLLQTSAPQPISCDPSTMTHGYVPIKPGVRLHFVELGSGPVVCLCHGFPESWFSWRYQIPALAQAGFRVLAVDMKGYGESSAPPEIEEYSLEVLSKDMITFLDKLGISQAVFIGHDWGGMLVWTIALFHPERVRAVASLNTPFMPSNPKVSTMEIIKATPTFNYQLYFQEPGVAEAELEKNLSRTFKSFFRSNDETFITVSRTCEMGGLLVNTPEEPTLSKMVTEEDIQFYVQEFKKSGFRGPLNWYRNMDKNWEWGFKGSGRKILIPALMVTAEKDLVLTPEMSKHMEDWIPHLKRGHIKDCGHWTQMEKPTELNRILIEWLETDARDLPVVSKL
Experiment: sEH inhibition potency (IC50), radioactive assay with [3H]t-DPPO, liver cytosol
Assay type: biochemical
Details: [3H]t-DPPO ([S]final = 5 μM) as substrate
For each of the compounds below, state its IC50.
Answers are plain numbers, in nM.

Example cases with answers are listed next.
Input line: GET /values?readout=IC50&item= "O=C(NCCCCOc1ccc(F)cc1)NC12CC3CC(CC(C3)C1)C2"
Output line: 7

Input line: GET /values?readout=IC50&item= "N#CNC(=O)CCCCCCCCCCCNC(=O)NC12CC3CC(CC(C3)C1)C2"
Output line: 11

// below: IC50 requested for another compound
Input line: GET /values?readout=IC50&item= "O=C(O)CCCCCCCCCCCNC(=O)NC12CC3CC(CC(C3)C1)C2"
Output line: 6

====

Assay: Solubility of inhibitors in different solvents
Type: physicochemical
Conditions: organic solvent or mixture, thermodynamic from solid; Tween 80, 40°C; read-out: Solubility in mg/mL
measurementType: solubility at 24 h (mg/mL)
One number for each entry, in mg/mL.

Input line: GET /values?readout=solubility at 24 h&item= "O=C(Nc1ccc(OC(F)(F)F)cc1)N[C@H]1CC[C@H](Oc2ccc(C(=O)O)cc2)CC1"
Output line: 15

====

Target: sEH activity from liver cytosol of Rat (Rattus norvegicus, UniProt P80299)
Construct: The radioactive fluorescent assay was used with the liver crude extracts; from tissue; host or cells: rat liver cytosol (100,000 g supernatant)
Sequence (P80299 1-554): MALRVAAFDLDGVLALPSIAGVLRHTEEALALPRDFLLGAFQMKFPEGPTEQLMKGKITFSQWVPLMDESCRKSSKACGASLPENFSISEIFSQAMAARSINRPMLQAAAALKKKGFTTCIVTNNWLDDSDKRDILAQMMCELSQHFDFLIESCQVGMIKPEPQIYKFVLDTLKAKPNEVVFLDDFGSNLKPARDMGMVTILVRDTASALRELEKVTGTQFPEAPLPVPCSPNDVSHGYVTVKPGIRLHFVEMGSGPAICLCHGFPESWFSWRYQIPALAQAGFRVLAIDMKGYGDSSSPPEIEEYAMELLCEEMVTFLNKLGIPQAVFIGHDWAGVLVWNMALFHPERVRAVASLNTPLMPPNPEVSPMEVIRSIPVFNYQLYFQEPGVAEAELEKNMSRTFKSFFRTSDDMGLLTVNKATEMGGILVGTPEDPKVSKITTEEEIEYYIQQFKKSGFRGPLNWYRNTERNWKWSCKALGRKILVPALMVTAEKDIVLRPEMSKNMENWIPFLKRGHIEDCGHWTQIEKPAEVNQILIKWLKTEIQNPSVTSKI
Test: sEH inhibition potency (IC50), radioactive assay with [3H]t-DPPO, liver cytosol
Format: biochemical
measurementType: pIC50
Give bare numbers, as −log10 of the molar value.

Input line: GET /values?readout=pIC50&item= "O=C(Nc1ccc(OC(F)(F)F)cc1)N[C@H]1CC[C@H](Oc2ccc(C(=O)O)cc2)CC1"
Output line: 8.22

====

For each of the compounds below, state its IC50.
Target: sEH activity from liver cytosol of Rat (Rattus norvegicus, UniProt P80299)
Construct: The radioactive fluorescent assay was used with the liver crude extracts; from tissue; host or cells: rat liver cytosol (100,000 g supernatant)
Assay: sEH inhibition potency (IC50), radioactive assay with [3H]t-DPPO, liver cytosol
Format: biochemical
Settings: liver cytosol; [3H]t-DPPO ([S]final = 5 μM) as substrate; read-out: IC50 (nM) Rat
I'd appreciate it if you wrote the number followed by its unit.

Input line: GET /values?readout=IC50&item= "N#CNC(=O)CCCCCCCCCCCNC(=O)NC12CC3CC(CC(C3)C1)C2"
Output line: 12 nM

// below: IC50 requested for another compound
Input line: GET /values?readout=IC50&item= "O=C(NCCCCOc1ccc(F)cc1)NC12CC3CC(CC(C3)C1)C2"
Output line: 7 nM

====

Test: Solubility of inhibitors in different solvents
Format: physicochemical
Conditions: organic solvent or mixture, thermodynamic from solid; PEG400, 30°C; read-out: Solubility
measurementType: solubility at 24 h

Input line: GET /values?readout=solubility at 24 h&item= "O=C(Nc1ccc(OC(F)(F)F)cc1)N[C@H]1CC[C@H](Oc2ccc(C(=O)O)cc2)CC1"
Output line: 40 mM

====

Experiment: Solubility of inhibitors in different solvents
Assay type: physicochemical
Conditions: organic solvent or mixture, thermodynamic from solid; Propylene glycol, 40°C; read-out: Solubility
measurementType: solubility at 24 h (mM)
Answers are plain numbers, in mM.

Input line: GET /values?readout=solubility at 24 h&item= "O=C(Nc1ccc(OC(F)(F)F)cc1)N[C@H]1CC[C@H](Oc2ccc(C(=O)O)cc2)CC1"
Output line: 14

====

Assay: Solubility of inhibitors in different solvents
Assay type: physicochemical
Details: organic solvent or mixture, thermodynamic from solid; Ethanol, 40°C; read-out: Solubility in mg/mL
Protocol: The un-dissolved compounds were filtered through a 0.22 μm centrifuge filter at 30 or 40°C and the supernatant further diluted 10-fold with methanol. The concentration of t-TUCB in the samples was determined by LC/MS/MS analysis as previously described ([15]).
measurementType: solubility at 24 h (mg/mL)
Give bare numbers, in mg/mL.

Input line: GET /values?readout=solubility at 24 h&item= "O=C(Nc1ccc(OC(F)(F)F)cc1)N[C@H]1CC[C@H](Oc2ccc(C(=O)O)cc2)CC1"
Output line: 14

Each recorded value in this set is attributed to paper PMC7479175.
